Assayed System: T1, human IL-4 (human, UniProt P05112 25-153)
T1 sequence (looked up): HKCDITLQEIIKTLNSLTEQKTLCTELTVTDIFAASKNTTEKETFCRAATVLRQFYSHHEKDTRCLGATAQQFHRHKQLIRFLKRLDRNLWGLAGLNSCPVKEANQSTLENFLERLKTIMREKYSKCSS
Assay Notes: cell-based or functional assay
Measured Attribute: CD23: Fold bioactivity relative to IL4-0002 (fold)
The reply should be a number in fold, with the unit left off.

Worked examples follow.
{"Binder": "IL4-0037 (antibody, IgG1, V domains shown) VH: EVTLRESGPALVKPTQTLTLTCTFSGFSLSNFGEGLSWIRQPPGKGLEWLAHIYWDDDKRYSTSLKTRLTISKDTSRNQVVLTMTNMDPVDTATYYCARRETVFYWYFDVWGQGTTVTVSS VL: DIQMTQSPSSLSASVGDRVTITCKASQSVDEDGDSYMNWYQQKPGKAPKLLIYAASNLESGVPSRFSGSGSGTDFTLTISSLQPEDFATYYCQQSNEDPPTFGGGTKVEIK", "Number": 1.3}
{"Binder": "IL4-1040 (antibody, human IgG1, kappa, V domains shown) VH: EVTLRESGPALVKPTQTLTLTCTFSGFSLSNFGEGLSWIRQPPGKGLEWLAHIYWDDDKRYNPSLKSRLTISKDTSRNQVVLTMTNMDPVDTATYYCARRETVFYWYFDVWGQGTTVTVSS VL: DIQMTQSPSSLSASVGDRVTITCRASQSVDEEGDSYMNWYQQKPGKAPKLLIYAASNLESGVPSRFSGSGSGTDFTLTISSLQPEDFATYYCQQSNKDPPTFGGGTKVEIKR", "Number": 0.7}
{"Binder": "IL4-0157 (antibody, IgG1, V domains shown) VH: EVTLRESGPALVKPTQTLTLTCTFSGFSLSNFGEGLSWIRQPPGKGLEWLAHIYWDDDKRYSTSLKTRLTISKDTSRNQVVLTMTNMDPVDTATYYCARRETVFYWYFDVWGQGTTVTVSS VL: DIQMTQSPSSLSASVGDRVTITCRASQSVDEEGDSYMNWYQQKPGKAPKLLIYAASNLESGVPSRFSGSGSGTDFTLTISSLQPEDFATYYCQQSHKDPPTFGGGTKVEIK", "Number": 0.2}

## Input Find the recorded CD23: Fold bioactivity relative to IL4-0002 belonging to IL4-0749 (antibody, human IgG1, kappa, V domains shown) VH: EVTLRESGPALVKPTQTLTLTCTFSGFSLSNFGEGLSWIRQPPGKGLEWLAHIYWDDDKRYNPSLKSRLTISKDTSRNQVVLTMTNMDPVDTATYYCARRETVFYWYFDVWGQGTTVTVSS VL: DIQMTQSPSSLSASVGDRVTITCRASQSVDEEGDSYMNWYQQKPGKAPKLLIYAASNLESGVPSRFSGSGSGTDFTLTISSLQPEDFATYYCQQSNEDPPTFGGGTKVEIKR and report it.
## Output 0.9
